Test system: SF-268
Experiment: NCI tumour cell line growth inhibition, 48 h
Active and inactive are the calls of the source. No stated cut-off is given here; in the data, active = GI50 up to about 1.1 µM and inactive = higher.
// allowed return values: active, inactive

These solved cases illustrate the format of a correct answer.
- COMPOUND: "C(=N\\Nc1nnc2c(n1)[nH]c1ccccc12)/c1cccnc1"
  ASSIGNED LABEL: "inactive"
- COMPOUND: "CCOC(=O)/C=C1\\Nc2ccccc2C(c2ccccc2)=NC1OC(C)=O (centres undefined)"
  ASSIGNED LABEL: "inactive"
- COMPOUND: "CC1=NNC(=S)NCCCN2CCN(CCCNC(=S)NN=C(C)C=NNC(=S)NCCCN3CCN(CCCNC(=S)NN=C1)CC3)CC2"
  ASSIGNED LABEL: "inactive"

Next:
Request: For COC1C(O)CC(OC2CC(OC3CC(O[C@@H]4C(=O)c5c(cc6cc(OC7CC(OC8CC(O)C(O)C(C)O8)C(O)C(C)O7)c(C)c(O)c6c5O)C[C@H]4[C@H](OC)C(=O)[C@@H](O)[C@@H](C)O)OC(C)C3O)OC(C)C2O)OC1C (some centres undefined) , what call appears in the results of this test?
Response: active

----------
Test system: UACC-257
Assay: NCI tumour cell line growth inhibition, 48 h
Activity calls are given as the source filed them. Rule as the data show it: active = GI50 up to about 1.1 µM and inactive = higher.
METRIC NAME: GI50

Worked cases, GI50 given:
- COMPOUND: "COC(=O)C1C(O)C(C(=O)OC)C(C)N(C)C1C (centres undefined)"
  METRIC NAME: "GI50"
  READING: "> 100 µM (inactive)"
- COMPOUND: "O=C1N[C@H]2C(=O)c3c(Br)sc(Br)c3[C@H]2O1"
  METRIC NAME: "GI50"
  READING: "8.07 µM (inactive)"
- COMPOUND: "CNS(=O)(=O)NNS(=O)(=O)c1cccc([N+](=O)[O-])c1"
  METRIC NAME: "GI50"
  READING: "> 100 µM (inactive)"

Turning now to a further compound:
Query "O=C(Nc1cc(C(=O)Nc2cccc(S(=O)(=O)O)c2)cc(C(=O)Nc2cccc(S(=O)(=O)O)c2)c1)c1cccc(C(=O)Nc2cc(C(=O)Nc3cccc(S(=O)(=O)O)c3)cc(C(=O)Nc3cccc(S(=O)(=O)O)c3)c2)c1" on UACC-257; GI50 returned: > 100 µM (inactive)

----------
Tested on: SN12C
Assay: NCI tumour cell line growth inhibition, 48 h
Active and inactive are the calls of the source. Cut-off read from the data, not from the text of the source: active = GI50 up to about 1.1 µM and inactive = higher.
// allowed return values: active, inactive

These solved cases illustrate the format of a correct answer.
- COMPOUND: "O=[N+]([O-])c1ccc2sc(/C=N/c3cnccn3)cc2c1"
  ASSIGNED LABEL: "inactive"
- COMPOUND: "O=C1N/C(=N/N=C/C(O)C(O)C(O)C(O)CO)N/C1=C\\c1c[nH]c2ccccc12 (configuration not stated)"
  ASSIGNED LABEL: "inactive"
- COMPOUND: "OC1CC1Sc1ccccc1 (configuration not stated)"
  ASSIGNED LABEL: "inactive"
- COMPOUND: "CCOc1cc2c(cc1O)/C(=N\\OC)C[C@@H]1[C@@H]2CC[C@]2(C)[C@@H](O)CC[C@@H]12"
  ASSIGNED LABEL: "active"
- COMPOUND: "Cc1nc(O)nc(CC(O)(c2ccccc2)c2ccccc2)c1-c1ccccc1"
  ASSIGNED LABEL: "inactive"
- COMPOUND: "CCCC/C=C1\\CCC(CN2CCCC2)C1=O (configuration not stated)"
  ASSIGNED LABEL: "inactive"
- COMPOUND: "CN1CN(c2ccccc2)C2(CCN(C3Nc4ccccc4O3)CC2)C1=O (configuration not stated)"
  ASSIGNED LABEL: "inactive"
- COMPOUND: "O=C1c2c(Br)sc(Br)c2C(=O)C1(O)O"
  ASSIGNED LABEL: "inactive"

Request: For "CCOC(=O)c1nc(SC)sc1NC(=O)c1ccc(OC)cc1" , what call appears in the results of this test?
Response: inactive

Request: For "O=[N+]([O-])c1ccc(N/N=C/CC(O)(C(F)(F)F)C(F)(F)F)c([N+](=O)[O-])c1" , what call appears in the results of this test?
Response: inactive

Request: For "c1cnc2c(c1)Nc1cnncc1S2" , what call appears in the results of this test?
Response: inactive

Request: For COc1cc(C2C(Cl)C(=O)N2c2c(C)n(C)n(-c3ccccc3)c2=O)ccc1O (configuration not stated) , what call appears in the results of this test?
Response: inactive

----------
System: NCI-H460
Assay: NCI tumour cell line growth inhibition, 48 h
Calls of active or inactive are those of the source. Cut-off read from the data, not from the text of the source: active = GI50 up to about 1.1 µM and inactive = higher.
// allowed return values: active, inactive

These solved cases illustrate the format of a correct answer.
- MOLECULE: "CC(=O)NC1C(OCc2ccccc2)OC(CO)C(O)C1OC(C)C(=O)NC(C(=O)NC(CCC(=O)NCCCCNc1c2ccccc2nc2cccc([N+](=O)[O-])c12)C(N)=O)C(C)C (stereo not drawn)"
  ASSIGNED LABEL: "active"
- MOLECULE: "CCN(CCCl)CCCCCNc1c2ccccc2nc2ccc(OC)cc12"
  ASSIGNED LABEL: "active"
- MOLECULE: "COc1cc2c(cc1OC)C(Cc1ccc(Oc3cc(CC4c5cc(OC)c(OC)cc5CCN4C)ccc3O)cc1)N(C)CC2 (stereo not drawn)"
  ASSIGNED LABEL: "inactive"
- MOLECULE: "O=c1ccs[nH]1"
  ASSIGNED LABEL: "inactive"
- MOLECULE: "O=C1OCC2OC(=O)c3cc(O)c(O)c(O)c3-c3c(O)c(O)c(O)c4c3C(=O)OC(C2OC(=O)c2cc(O)c(O)c(O)c2-c2c1cc(O)c(O)c2O)C1OC(=O)C2C4=C(O)C(=O)C23Oc2cc(O)c4c(c2[C@H]13)O[C@H](c1ccc(O)c(O)c1)[C@@H](O)C4 (stereo partly drawn)"
  ASSIGNED LABEL: "inactive"

Request: For "CCN(CC)c1nnc(CCCCCCCCc2nnc(N(CC)CC)o2)o1" , what call appears in the results of this test?
Response: inactive

Request: For "O=C(N/C(=C\c1cc(Cl)ccc1Cl)c1nc2c(O)nc(S)nc2[nH]1)c1ccccc1" , what call appears in the results of this test?
Response: inactive

----------
Tested on: MCF7
Assay: NCI tumour cell line growth inhibition, 48 h
Calls of active or inactive are those of the source. No stated cut-off is given here; in the data, active = GI50 up to about 1.1 µM and inactive = higher.
Each entry below carries its recorded GI50.

Item: "C=CCCCCCCCCC(=O)O" | GI50: 152 µM (inactive)

Item: "CC(=O)[C@@]1(O)CC[C@H]2[C@@H]3C[C@H](C)C4=CC(=O)CC[C@]4(C)[C@H]3[C@@H](O)C[C@@]21C" | GI50: > 100 µM (inactive)

Item: Nc1cc(C2CCCc3c2[nH]c2ccccc32)ccc1O (stereo unspecified) | GI50: 24.8 µM (inactive)

----------
System: SF-268
Assay: NCI tumour cell line growth inhibition, 48 h
The source made the active and inactive calls. No stated cut-off is given here; in the data, active = GI50 up to about 1.1 µM and inactive = higher.
// allowed return values: active, inactive

- COMPOUND: "N=C(NNS(=O)(=O)c1ccccc1)Oc1ccc(Br)cc1Br"
  SYSTEM UNDER TEST: "SF-268"
  ASSIGNED LABEL: "inactive"

Request: For COc1ccc(N2C(=O)C3c4[nH]c5ccc(OC)cc5c4C4CCC(C(C)C)CC4C3C2=O)cc1 (configuration not stated) , what call appears in the results of this test?
Response: inactive

Request: For CC/C(=N/O)C(C)C(=O)CCC(=O)Nc1ccc(Cl)cc1 (configuration not stated) , what call appears in the results of this test?
Response: inactive

Request: For CC(=O)NC(C)(C)C1CCC(C)=C(c2ccccc2)C1 (configuration not stated) , what call appears in the results of this test?
Response: inactive

----------
Here we list compounds with their recorded GI50 when tested on HCT-15.
Write it as a number; the unit µM goes unstated.

Worked cases, GI50 given:
- COMPOUND: "CC[C@@]1(OC(=O)CCC(=O)O)C(=O)OCc2c1cc1n(c2=O)Cc2cc3ccccc3nc2-1"
  READING: 0.472
- COMPOUND: "Cc1ccc(S(=O)(=O)NC(=O)NCCC(=O)O)cc1"
  READING: 21.4
- COMPOUND: "O=C1Nc2c(Cl)cc(Cl)cc2/C1=N/N=C/c1ccccc1O"
  READING: 17.8

Turning now to a further compound:
Query CCC1(N=[N+]=[N-])C(=O)Nc2cc(C)ccc2C1=O (stereo unspecified) on HCT-15; GI50 returned: 72.1

----------
System: IGROV-1
Experiment: NCI tumour cell line growth inhibition, 48 h
Calls of active or inactive are those of the source. Cut-off read from the data, not from the text of the source: active = GI50 up to about 1.1 µM and inactive = higher.
// allowed return values: 1.0 for active, 0.0 for inactive

These solved cases illustrate the format of a correct answer.
- MOLECULE: "COc1c(CC(=O)c2ccccc2)c2ccccc2n1C(C)=O"
  SYSTEM UNDER TEST: "IGROV-1"
  ASSIGNED LABEL: 0.0
- MOLECULE: "COC(=O)[C@@H]1C[C@H]2[C@H](c3ccccc3Br)[C@@H](OC(C)=O)[C@@H](OCc3ccccc3)ON2O1"
  SYSTEM UNDER TEST: "IGROV-1"
  ASSIGNED LABEL: 0.0
- MOLECULE: "CCOC(=O)Nc1cc2c(c(N)n1)N=C(c1ccc3ccccc3c1)CN2"
  SYSTEM UNDER TEST: "IGROV-1"
  ASSIGNED LABEL: 1.0

Request: For CSc1ncc2c(n1)-c1ccccc1OC2N1CCCCC1 (configuration not stated) , what call appears in the results of this test?
Response: 0.0

Request: For CCOP(=O)(OCC)C(N)c1ccc(Cl)cc1 (configuration not stated) , what call appears in the results of this test?
Response: 0.0

Request: For "Cc1nc2c(n1CC(C)(C)C)C(=O)c1ccccc1C2=O" , what call appears in the results of this test?
Response: 0.0

Request: For COc1ccc(N2C(=O)C3c4[nH]c5ccc(OC)cc5c4C4CCC(C(C)C)CC4C3C2=O)cc1 (configuration not stated) , what call appears in the results of this test?
Response: 0.0

Request: For CC1(C)OCC(C2OC3OC(C)(C)OC3C2N)O1 (configuration not stated) , what call appears in the results of this test?
Response: 0.0

Request: For "CCOC(=O)c1cc(OC(=O)CC)c2c(OC)ccc(OC)c2c1" , what call appears in the results of this test?
Response: 0.0

Request: For CCOC(=O)C(Cc1ccc(OC(=O)c2ccc(OC)cc2)cc1)NC(=O)C(F)(F)F (configuration not stated) , what call appears in the results of this test?
Response: 0.0
